system: Leishmania donovani; assay: Leishmania intramacrophage assay; format: functional, organism-based; design: scale not given: in the data most compounds retested in dose-response had high values; settings: 30 µM; 30.03 µM
Out of some 69,000 compounds screened, about 1,000 (1.4%) showed an effect of 50% or more. Many of the other results were omitted from the sample, so strong results are more common in it than they were.
quantity.measured: Percent Effect (%)
# output: bare number, implied unit %

Fc1ccccc1CN1C[C@@H](OCc2ccncc2)[C@H]2OCCC[C@H]21.O=C(O)C(F)(F)F.O=C(O)C(F)(F)F	54.27

Value wanted: Percent Effect (Leishmania donovani) of entry "Cc1noc([C@H]2C[C@H]3OCC[C@H]3N(Cc3ccc4c(c3)OCO4)C2)n1.O=C(O)C(F)(F)F"
25.3

Record "COc1cccc(CN(C)C(=O)CN2CC(n3nc(C)cc3C)C2)c1" : what is its Percent Effect with Leishmania donovani?
4.207

Under Leishmania donovani: Percent Effect value of CN(C)C(=O)N1CCOCC2(CCN(c3ccccn3)C2)C1.O=C(O)C(F)(F)F (centres undefined) ?
18.14

* * *

system: Leishmania donovani; assay: Leishmania intramacrophage assay; assay type: functional, organism-based; set-up: scale not given: in the data most compounds retested in dose-response had high values; settings: 30.3 µM; […]
Screen size: about 69,000 compounds; about 1,000 (1.4%) showed an effect of 50% or more. This excerpt belongs to a sample that is enriched for strong results.
quantity.measured: Percent Effect (%)
Number only, in %; omit the unit.

Which Percent Effect value is on record for "Cc1nc(=O)c2ccccc2n1C1=CCN(CC(=O)N2CCCC2)CC1" ?
66.01

What does the data say about its Percent Effect? Entry: "c1ccc(OCCNCc2cccs2)nc1"
46.82

What does the record list as Percent Effect for CC(=O)NCCC(=O)NC(C)c1sc(-c2ccccc2F)nc1C (configuration not stated) ?
-1.241

Which value of Percent Effect has been reported for "COCC(=O)NC[C@H]1CC[C@H](c2ccnc3ncnn32)CC1" in the records?
23.66

Recorded Percent Effect of "c1ccc(Cn2cccn2)c(CNCc2cnc(N3CCCC3)nc2)c1" , please.
54.07

Give its Percent Effect value. Item: CC(O)CCN(C)C(=O)Nc1cccc(F)c1 (configuration not stated)
1.493

* * *

tested on: Leishmania donovani; assay: Leishmania intramacrophage assay; format: functional, organism-based; set-up: scale not given: in the data most compounds retested in dose-response had high values; settings: 30.3 µM; […]
The whole screen tested about 69,000 compounds, of which about 1,000 (1.4%) showed an effect of 50% or more. For the sample, strong results were picked, then their nearest neighbours and some compounds at random.
quantity.measured: Percent Effect (%)
Unit % implied. Number only.

Known Percent Effect results, listed for orientation:
COc1cccc2c1OCC(Cc1cc(C(=O)N3CCCC3)ccn1)C2 (configuration not stated)	20.15
COCCC(=O)N1CCC2(CCN(Cc3ccc(C)cc3)CC2)C1.O=C(O)C(F)(F)F	52.88
CN1CCN(Cc2ccc(-c3ccc(-c4ccn[nH]4)cc3)nc2)CC1	8.288
Cc1c[nH]c(C2CCCN(Cc3ccccc3C(=O)O)C2)n1.O=CO (configuration not stated)	-7.994
Cc1ccc(CN2CCC3(CC2)CCN(Cc2ccoc2)CC3)cc1.O=C(O)C(F)(F)F.O=C(O)C(F)(F)F	75.99

May I ask what Percent Effect has been recorded for "O=C(CC(F)(F)F)N1C[C@H]2CC[C@@H]1CN(Cc1ccccc1)C2" ?
17.26

# lookup: Percent Effect of "O=C(NCCc1cccc(F)c1)c1nc2c(s1)CCCN2C(=O)C1CC1"
44.4

Consider the compound "Cc1ccc2[nH]c(CN3CC[C@@H](N4CCN(C)CC4)[C@H](O)C3)c(C)c2c1" and give its measured Percent Effect.
23.41

// returns reported Percent Effect for input Cc1nn(C)c(Cl)c1C1CCCN1c1ncnc2c1CCC2 (configuration not stated)
-27.23

Returns the measured Percent Effect for the input compound. Input: COCCCN1CC2(CCCCN2C(C)=O)CC1=O (configuration not stated)
13.42

Percent Effect lookup needed for "COCCC(=O)N1CCC2(CCN(Cc3cccc(F)c3)CC2)C1.O=C(O)C(F)(F)F" , thanks.
10.96

Query: Percent Effect; subject: O=C(c1cnccn1)N1CCCC(C2=Nc3ccccc3S(=O)(=O)N2)C1 (configuration not stated)
-20.53

Fill blank: measured Percent Effect of the compound "Cc1cc(O)n2nc(C3CCN(C(=O)c4ccccn4)CC3)cc2n1" is ____.
-30.04

* * *

system: Leishmania donovani; assay: Leishmania intramacrophage assay; assay type: functional, organism-based; design: scale not given: in the data most compounds retested in dose-response had high values; details: 30 µM; 30.03 µM
In all, about 69,000 compounds went through this assay and about 1,000 (1.4%) showed an effect of 50% or more. This excerpt belongs to a sample that is enriched for strong results.
Percent Effect reference
Give the value in % but do not write % after it.

COc1ccc(C2CCCN2C(=O)NCCNc2ncccn2)cc1 (configuration not stated)	9.2
CCn1cnnc1C1CCN(C(=O)C(OC)c2ccccc2)CC1 (configuration not stated)	25.64
COc1ncccc1NC(=O)N(Cc1ccc(C)o1)C1CC1	53.3

Percent Effect for "CC(C)Cc1ccc(S(=O)(=O)Nc2ccc(=O)n(C)c2)cc1" ?
40.75

Give its Percent Effect value. Item: "CC(C)N1CCO[C@H]2CN(C(=O)c3ccoc3)C[C@H]21.O=C(O)C(F)(F)F"
-20.99

* * *

A collection of molecules and their measured Percent Effect
system: Leishmania donovani; test: Leishmania intramacrophage assay; type: functional, organism-based; parameters: scale not given: in the data most compounds retested in dose-response had high values; conditions: 30.3 µM; […]
Hit rate of the full screen: of about 69,000 compounds, about 1,000 (1.4%) showed an effect of 50% or more. Only a selection was taken, and strong results are over-represented in it overall.
Quick reminder: number only, in %, skip the unit.

Example cases with answers are listed next.
Cc1cccc(CN2CCn3c(COc4ncccn4)nnc3C2)n1	26.49
CCc1[nH]c2c(CNc3nc(C)cc(NC)n3)cc(C)cc2c1C	89.36
CCc1[nH]c2c(CNc3cncc(C(=O)OC)n3)cc(C)cc2c1C	-70.43
COCCNc1ccccc1CNC(=O)NCc1cnc(C)s1	19.41
CN(Cc1cn[nH]c1-c1ccc(F)cc1)C(=O)CCC1CC1	-4.143

Shifting focus to the molecule that follows.
Would you kindly share the measured Percent Effect for "CCc1[nH]c2c(CNc3nccc(N)n3)cc(C)cc2c1C" ?
21.52

* * *

tested on: Leishmania donovani; assay: Leishmania intramacrophage assay; type: functional, organism-based; set-up: scale not given: in the data most compounds retested in dose-response had high values; conditions: 30 µM; 30.03 µM
The campaign covered roughly 69,000 compounds. About 1,000 (1.4%) showed an effect of 50% or more. The sample holds strong results, similar compounds and a random draw of the others, so the mix is not that of the screen.
quantity.measured: Percent Effect (%)
// return numeric value only (unit: %, not printed)

O=C(c1ccc(Br)o1)N1CCN(Cc2ccc(OC(F)(F)F)cc2)CC1	31.07

Param item = "O=C(NCCC(=O)N1CCCC1)c1nn(-c2ccccc2F)cc1O" ; retrieve measured Percent Effect.
-0.1897

# lookup: Percent Effect of "COc1ccccc1CNC(=O)C1=NN(c2ccc(C)cc2)C(=O)CN1"
61.91

GET /values?readout=Percent Effect&item= "CCCS(=O)(=O)N1CCC2(CC1)CN(c1ccccn1)CCO2.O=C(O)C(F)(F)F"
10.12

Fill blank: measured Percent Effect of the compound "Cc1ccc(CNC(=O)NCc2csc(C)n2)cn1" is ____.
22.66

What does the record list as Percent Effect for "c1cncc(OCc2noc3c2CN(Cc2ccoc2)CC3)c1" ?
10.86

Can you look up the measured Percent Effect of "Cc1cccc(-c2noc(CN3CCC(N4CCNC4=O)CC3)n2)c1" for me?
37

Please report the recorded Percent Effect for "CN(C(=O)c1cccc2[nH]ncc12)C1CCN(c2ccccn2)CC1" .
-37.63

* * *

system: Leishmania donovani; assay: Leishmania intramacrophage assay; format: functional, organism-based; set-up: scale not given: in the data most compounds retested in dose-response had high values; settings: 30.3 µM; […]
About 1,000 (1.4%) of roughly 69,000 compounds showed an effect of 50% or more. The sample holds strong results, similar compounds and a random draw of the others, so the mix is not that of the screen.
Binarize Percent Effect at 10%; below is MET, at or above is NOT MET.

CC(Cn1cccn1)NC(=O)N1CCN(Cc2ccsc2)CC1 (stereo not given)	MET
CCc1ccc(C2CC(=O)Nc3cc(OC)c(NS(C)(=O)=O)cc32)o1 (stereo not given)	MET
CC(C)C(NC(=O)c1ccccc1F)C(=O)Nc1cnn(C)c1 (stereo not given)	NOT MET
CN(C)[C@H]1CCCCN(C(=O)c2cccc(N3CCS(=O)(=O)CC3)c2)C1	MET
CCC1=N[C@@]2(CC[C@@H]3CN(Cc4ccccc4C)C[C@@H]32)C(=O)N1C.O=C(O)C(F)(F)F	NOT MET
CCC1=N[C@@]2(CC[C@@H]3CN(Cc4ccc(C)cc4)C[C@@H]32)C(=O)N1C.O=C(O)C(F)(F)F	NOT MET

In plain terms, does "Cc1ncc(CNC(C)(C)CO)c2cc(C(=O)c3ccc(Br)cc3)oc12" come in under 10% for Percent Effect?
NOT MET

Is Percent Effect of "COc1ccccc1CCN[C@@H]1c2ccccc2C2(CCNCC2)[C@H]1O" strictly below 10%?
NOT MET

Is it true that Percent Effect reported for Cc1ccc(C(=O)NCC(C)CN2CCCC2=O)c(=O)[nH]1 (stereo not given) is less than 10%?
NOT MET
